- ASSAYED_SYSTEM: Serine/threonine-protein kinase TAO1 (Homo sapiens, UniProt Q7L7X3); note: in the data inactive means no Kd found up to 30 µM
- Sequence (Q7L7X3 whole entry): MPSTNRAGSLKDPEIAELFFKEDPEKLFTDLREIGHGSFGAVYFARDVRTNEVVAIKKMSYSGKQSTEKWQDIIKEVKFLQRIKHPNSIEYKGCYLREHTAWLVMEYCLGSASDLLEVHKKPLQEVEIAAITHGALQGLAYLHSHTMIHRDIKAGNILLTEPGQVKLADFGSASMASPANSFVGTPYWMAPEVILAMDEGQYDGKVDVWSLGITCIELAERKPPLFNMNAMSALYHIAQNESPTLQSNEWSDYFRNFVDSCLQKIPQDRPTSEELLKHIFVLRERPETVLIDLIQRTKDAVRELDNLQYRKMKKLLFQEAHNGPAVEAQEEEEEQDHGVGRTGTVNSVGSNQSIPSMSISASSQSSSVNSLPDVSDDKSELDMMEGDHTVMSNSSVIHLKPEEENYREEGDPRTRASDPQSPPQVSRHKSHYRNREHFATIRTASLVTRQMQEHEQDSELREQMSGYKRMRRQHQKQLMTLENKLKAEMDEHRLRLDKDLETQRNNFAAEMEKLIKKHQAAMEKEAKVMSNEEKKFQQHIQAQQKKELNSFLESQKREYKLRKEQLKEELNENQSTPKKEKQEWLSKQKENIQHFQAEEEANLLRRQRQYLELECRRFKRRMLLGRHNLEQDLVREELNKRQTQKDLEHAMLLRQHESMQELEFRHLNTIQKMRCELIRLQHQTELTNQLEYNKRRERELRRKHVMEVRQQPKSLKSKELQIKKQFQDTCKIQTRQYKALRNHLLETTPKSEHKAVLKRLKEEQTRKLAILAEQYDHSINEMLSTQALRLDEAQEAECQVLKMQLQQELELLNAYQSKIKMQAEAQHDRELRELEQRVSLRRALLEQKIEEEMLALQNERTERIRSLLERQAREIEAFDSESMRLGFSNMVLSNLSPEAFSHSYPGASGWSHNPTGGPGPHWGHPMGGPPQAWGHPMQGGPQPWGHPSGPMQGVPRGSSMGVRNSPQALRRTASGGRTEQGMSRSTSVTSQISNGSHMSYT
Counter-ions that a name gives are not always drawn. The source made the active and inactive calls.
A correct response names exactly one class from YES (active), NO (inactive)

Req: Answer briefly: the call reported for Cc1nc(NC(=O)N2CCC[C@H]2C(N)=O)sc1-c1ccnc(C(C)(C)C(F)(F)F)c1 in this assay.
Resp: NO

Req: Answer briefly: the call reported for CN1CCN(CCOc2cc(OC3CCOCC3)c3c(Nc4c(Cl)ccc5c4OCO5)ncnc3c2)CC1 in this assay.
Resp: NO

Req: Answer briefly: the call reported for Cc1cccc(-c2nn3c(c2-c2ccnc4ccc(C(N)=O)cc24)CCC3)n1 in this assay.
Resp: NO

Req: Answer briefly: the call reported for CNC(=O)c1cc(Oc2ccc(NC(=O)Nc3cc(C(C)(C)C)nn3-c3ccc4ncccc4c3)c(F)c2)ccn1 in this assay.
Resp: NO

Req: Answer briefly: the call reported for O=C(Cc1ccc(-c2ccc(OCCN3CCOCC3)cc2)cn1)NCc1ccccc1 in this assay.
Resp: NO

Req: Answer briefly: the call reported for CC(=O)c1cnc2ccc(-c3cc(Cl)c(O)c(Cl)c3)nc2c1N[C@H]1CC[C@H](CN(C)C)CC1 in this assay.
Resp: YES

Req: Answer briefly: the call reported for Cc1nc2cc(-n3ncc(C(=O)c4cc5ccccc5[nH]4)c3N)ccc2[nH]1 in this assay.
Resp: NO

Req: Answer briefly: the call reported for C[C@@H](N)c1ccc(C(=O)Nc2ccnc3[nH]ccc23)cc1 in this assay.
Resp: YES

Req: Answer briefly: the call reported for Cn1cc(-c2cnn3c(N)c(Br)c([C@@H]4CCCNC4)nc23)cn1 in this assay.
Resp: NO

Req: Answer briefly: the call reported for N#CC1(c2ccc(NC(=O)c3cccnc3NCc3ccncc3)cc2)CCCC1 in this assay.
Resp: NO

Req: Answer briefly: the call reported for COc1ncc(-c2ccc3nccc(-c4ccnnc4)c3c2)cc1NS(=O)(=O)c1ccc(F)cc1F in this assay.
Resp: NO

Req: Answer briefly: the call reported for CCS(=O)(=O)c1cccc(-c2cc(C(=O)NC3CCN(C)CC3)c(C)c3[nH]c4ncc(C)cc4c23)c1 in this assay.
Resp: NO

Req: Answer briefly: the call reported for O=C1NC(=O)[C@@H](c2cn3c4c(cccc24)CCC3)[C@@H]1c1c[nH]c2ccccc12 [TIVANTINIB] in this assay.
Resp: NO

Req: Answer briefly: the call reported for CCNC(=O)C#Cc1ccc2c(c1)NC(=O)/C2=C(\Nc1ccc(CN(C)C)cc1)c1ccccc1 in this assay.
Resp: NO

Req: Answer briefly: the call reported for COc1cc2ncnc(Oc3cccc(NC(=O)Nc4cc(C(C)(C)C(F)(F)F)on4)c3)c2cc1OC in this assay.
Resp: NO

Req: Answer briefly: the call reported for Cc1cc(C(=O)NOCCO)c(Nc2ccc(I)cc2F)n(C)c1=O in this assay.
Resp: NO

Req: Answer briefly: the call reported for O=C(Nc1c[nH]nc1-c1nc2cc(CN3CCOCC3)ccc2[nH]1)NC1CC1 in this assay.
Resp: YES

Req: Answer briefly: the call reported for FC(F)(F)c1ccc(/C=C/c2nc(COc3ccc(CCCCn4ccnn4)cc3)co2)cc1 in this assay.
Resp: NO

Req: Answer briefly: the call reported for CO[C@H]1C[C@@H]2CC[C@@H](C)[C@@](O)(O2)C(=O)C(=O)N2CCCC[C@H]2C(=O)O[C@H]([C@H](C)C[C@@H]2CC[C@@H](OP(C)(C)=O)[C@H](OC)C2)CC(=O)[C@H](C)/C=C(\C)[C@@H](O)[C@@H](OC)C(=O)[C@H](C)C[C@H](C)/C=C/C=C/C=C/1C in this assay.
Resp: NO

Req: Answer briefly: the call reported for NC1(c2ccc(-c3nc4ccn5c(=O)[nH]nc5c4cc3-c3ccccc3)cc2)CCC1 in this assay.
Resp: NO

Req: Answer briefly: the call reported for Cn1ncc(Cl)c1-c1cc(C(=O)N[C@H](CN)Cc2ccc(F)c(F)c2)oc1Cl in this assay.
Resp: NO

Req: Answer briefly: the call reported for CCS(=O)(=O)N1CCN(c2ccc(Nc3ncc(C(N)=O)c(NC4CC4)n3)cc2)CC1 [Cerdulatinib Hydrochloride] in this assay.
Resp: YES

Req: Answer briefly: the call reported for Cn1cc(-c2cnc3ccc4ccc(CS(=O)(=O)NCc5ccccn5)cc4c(=O)c3c2)cn1 in this assay.
Resp: NO

Req: Answer briefly: the call reported for CNC(=O)c1cccc2cc(Oc3ccnc4cc(OCC5(N)CC5)c(OC)cc34)ccc12 in this assay.
Resp: NO
